experiment: Compound was evaluated for inhibition of Interleukin (IL1-beta) release in human monocytes.; assay type: functional, cell-based
Quantity Measured: IC50 (µM)
Express your answer in µM, writing the number without its unit.

Quick one: IC50 for CC1=C(O)C(=O)C=C2C1=CC=C1[C@@]2(C)CC[C@@]2(C)[C@@H]3C[C@](C)(C(=O)O)CC[C@]3(C)CC[C@]12C [CELASTROL] ? 0.04

// data source = ChEMBL document CHEMBL1130623
